Entries and their growth values follow.
# System: E. coli TESEC Mtb Alr
# assay_explanation: growth (OD600 after 10 h); higher = more growth (less inhibition)
# run_conditions: arabinose 10000 nM; compound 0.1 mM; raw OD600 reference: median of DMSO wells 0.264, cell-free background 0.041
Where a name gives a salt, the structure may show the parent alone.
property_label: growth

[[record]]
compound = "CCCCN(CCCC)CCC(O)c1cc2c(Cl)cc(Cl)cc2c2cc(C(F)(F)F)ccc12 (configuration not stated) [Halofantrine hydrochloride]"
endpoint_value = 0.31

[[record]]
compound = "CC1(C)O[C@@H]2C[C@H]3[C@@H]4CCC5=CC(=O)C=C[C@]5(C)[C@H]4[C@@H](O)C[C@]3(C)[C@]2(C(=O)CO)O1 [Desonide]"
endpoint_value = 0.254

[[record]]
compound = "CC(C)NC[C@@H](O)COc1cccc2ccccc12 [(R)-Propranolol hydrochloride]"
endpoint_value = 0.291

[[record]]
compound = "CCCSc1ccc2[nH]c(NC(=O)OC)nc2c1 [Albendazole]"
endpoint_value = 0.255

[[record]]
compound = "Nc1ccc(S(=O)(=O)Nc2ccccn2)cc1 [Sulfapyridine]"
endpoint_value = 0.261

[[record]]
compound = "NC[C@H]1O[C@H](O[C@H]2[C@H](O[C@@H]3O[C@H](CO)[C@@H](O)[C@H]3O)[C@@H](O)[C@H](N)C[C@@H]2N)[C@H](N)[C@@H](O)[C@@H]1O [Ribostamycin sulfate salt]"
endpoint_value = 0.269

[[record]]
compound = "CC(C)NCC(O)c1ccc(O)c(O)c1 (single isomer, unassigned; (-)) [(-)-Isoproterenol hydrochloride]"
endpoint_value = 0.278


====

# System: E. coli TESEC Mtb Alr
# assay_explanation: growth (OD600 after 10 h); higher = more growth (less inhibition)
# run_conditions: arabinose 10000000 nM; compound 0.1 mM; raw OD600 reference: median of DMSO wells 0.146, cell-free background 0.041
Structures can show the parent of a compound that is named as a salt.
property_label: growth

[[record]]
compound = "CN1CCCN=C1/C=C/c1cccc(O)c1 [Oxantel pamoate]"
property_label = "growth"
endpoint_value = 0.189

[[record]]
compound = "Nc1ccc(S(=O)(=O)Nc2ccnn2-c2ccccc2)cc1"
property_label = "growth"
endpoint_value = 0.149

[[record]]
compound = "Cc1cc(N)c2ccccc2[n+]1CCCCCCCCCC[n+]1c(C)cc(N)c2ccccc21 [Dequalinium dichloride]"
property_label = "growth"
endpoint_value = 0.049

[[record]]
compound = "CCOc1ccc(Cc2nccc3cc(OCC)c(OCC)cc23)cc1OCC [Ethaverine hydrochloride]"
property_label = "growth"
endpoint_value = 0.0686

[[record]]
compound = "CC(C)/N=c1\\cc2n(-c3ccc(Cl)cc3)c3ccccc3nc-2cc1Nc1ccc(Cl)cc1"
property_label = "growth"
endpoint_value = 0.168

[[record]]
compound = "CN1CCN(CC(=O)N2c3ccccc3C(=O)Nc3cccnc32)CC1 [Pirenzepine dihydrochloride]"
property_label = "growth"
endpoint_value = 0.148

[[record]]
compound = "Cc1cccn2c(=O)c(-c3nnn[nH]3)cnc12"
property_label = "growth"
endpoint_value = 0.125

[[record]]
compound = "CN(Cc1cc(Br)cc(Br)c1N)C1CCCCC1 [Bromhexine hydrochloride]"
property_label = "growth"
endpoint_value = 0.0454

[[record]]
compound = "CCc1cc(Cl)c(OC)c(C(=O)NC[C@@H]2CCCN2CC)c1O [S(-)Eticlopride hydrochloride]"
property_label = "growth"
endpoint_value = 0.163


====

Parameter growth: see the listing below.
# Tested on: E. coli TESEC Mtb Alr
# assay_explanation: growth (OD600 after 10 h); higher = more growth (less inhibition)
# run_conditions: arabinose 100000 nM; compound 0.1 mM; raw OD600 reference: median of DMSO wells 0.201, cell-free background 0.041
Structures can show the parent of a compound that is named as a salt.
property_label: growth

[[record]]
molecule = "COc1ccccc1OCC(O)CO (centres undefined) [Guaifenesin]"
endpoint_value = 0.191

[[record]]
molecule = "CN1CCCCC1CCN1c2ccccc2Sc2ccc([S+](C)[O-])cc21 (centres undefined) [Mesoridazine besylate]"
endpoint_value = 0.225

[[record]]
molecule = "COc1ccc2cc([C@@H](C)C(=O)O)ccc2c1 [(R) -Naproxen sodium salt]"
endpoint_value = 0.198

[[record]]
molecule = "CC[C@H]1OC(=O)C[C@@H](O)[C@H](C)[C@@H](O[C@@H]2O[C@H](C)[C@@H](O[C@H]3C[C@@](C)(O)[C@@H](O)[C@H](C)O3)[C@H](N(C)C)[C@H]2O)[C@@H](CC=O)C[C@@H](C)C(=O)/C=C/C(C)=C/[C@@H]1CO[C@@H]1O[C@H](C)[C@@H](O)[C@@H](OC)[C@H]1OC [Tylosin]"
endpoint_value = 0.0503


====

# Test system: E. coli TESEC Mtb Asd
# assay_explanation: growth (OD600 after 10 h); higher = more growth (less inhibition)
# run_conditions: arabinose induction (level): High; compound 0.1 mM; raw OD600 reference: median of DMSO wells 0.331, cell-free background 0.041
Structures can show the parent of a compound that is named as a salt.
// no (0) strictly below 0.1 in growth; yes (1) otherwise

[[record]]
molecule = "C[C@H](N)[C@H](O)c1cccc(O)c1 [Metaraminol bitartrate]"
class_assignment = "yes (1)"

[[record]]
molecule = "CC(CN1c2ccccc2Sc2ccccc21)N(C)C (stereo not given) [Promethazine hydrochloride]"
class_assignment = "yes (1)"

[[record]]
molecule = "CN(CCCN1c2ccccc2CCc2ccccc21)CC(=O)c1ccc(Cl)cc1 [Lofepramine]"
class_assignment = "yes (1)"

[[record]]
molecule = "Clc1ccc(CO/N=C(\\Cn2ccnc2)c2ccc(Cl)cc2Cl)c(Cl)c1 [Oxiconazole Nitrate]"
class_assignment = "no (0)"

[[record]]
molecule = "COC(=O)Nc1nc2cc([S+]([O-])c3ccccc3)ccc2[nH]1 (stereo not given) [Oxfendazol]"
class_assignment = "yes (1)"


====

# Tested on: E. coli TESEC Mtb Alr
# assay_explanation: growth (OD600 after 10 h); higher = more growth (less inhibition)
# run_conditions: arabinose 100 nM; compound 0.1 mM; raw OD600 reference: median of DMSO wells 0.413, cell-free background 0.052
Counter-ions that a name gives are not always drawn.
Reported growth values follow for various compounds
property_label: growth

[[record]]
compound = "CC(C)Oc1ccc2c(=O)c(-c3ccccc3)coc2c1"
experimental_target = "E. coli TESEC Mtb Alr"
property_label = "growth"
endpoint_value = 0.402

[[record]]
compound = "CCOC(=O)c1ccc(N)cc1"
experimental_target = "E. coli TESEC Mtb Alr"
property_label = "growth"
endpoint_value = 0.409

[[record]]
compound = "CC(=O)N(CC(O)CO)c1c(I)c(C(=O)NCC(O)CO)c(I)c(C(=O)NCC(O)CO)c1I (configuration not stated) [Iohexol]"
experimental_target = "E. coli TESEC Mtb Alr"
property_label = "growth"
endpoint_value = 0.418

[[record]]
compound = "CN1CCCC(CC2c3ccccc3Sc3ccccc32)C1 (configuration not stated) [Metixene hydrochloride]"
experimental_target = "E. coli TESEC Mtb Alr"
property_label = "growth"
endpoint_value = 0.401

[[record]]
compound = "CC(C)NCC(O)c1ccc(O)c(O)c1 (single isomer, unassigned; (-)) [(-)-Isoproterenol hydrochloride]"
experimental_target = "E. coli TESEC Mtb Alr"
property_label = "growth"
endpoint_value = 0.434

[[record]]
compound = "CCc1cc(C(N)=S)ccn1 [Ethionamide]"
experimental_target = "E. coli TESEC Mtb Alr"
property_label = "growth"
endpoint_value = 0.406

[[record]]
compound = "NS(=O)(=O)c1cc(C2(O)NC(=O)c3ccccc32)ccc1Cl (configuration not stated)"
experimental_target = "E. coli TESEC Mtb Alr"
property_label = "growth"
endpoint_value = 0.415

[[record]]
compound = "CCOc1ccccc1OCC1CNCCO1 (configuration not stated) [Viloxazine hydrochloride]"
experimental_target = "E. coli TESEC Mtb Alr"
property_label = "growth"
endpoint_value = 0.406

[[record]]
compound = "N=C(N)NCCN1CCCCCCC1 [Guanethidine sulfate]"
experimental_target = "E. coli TESEC Mtb Alr"
property_label = "growth"
endpoint_value = 0.419

[[record]]
compound = "CCC(C)(C)C(=O)O[C@H]1C[C@@H](C)C=C2C=C[C@H](C)[C@H](CC[C@@H]3C[C@@H](O)CC(=O)O3)[C@H]21"
experimental_target = "E. coli TESEC Mtb Alr"
property_label = "growth"
endpoint_value = 0.392

[[record]]
compound = "CC(C)Cc1ccc([C@H](C)C(=O)O)cc1 [S-(+)-ibuprofen]"
experimental_target = "E. coli TESEC Mtb Alr"
property_label = "growth"
endpoint_value = 0.402

[[record]]
compound = "COc1ccc(C[C@@H]2c3cc(OC)c(OC)cc3CC[N@+]2(C)CCC(=O)OCCCCCOC(=O)CC[N@@+]2(C)CCc3cc(OC)c(OC)cc3[C@H]2Cc2ccc(OC)c(OC)c2)cc1OC [Cisatracurium besylate]"
experimental_target = "E. coli TESEC Mtb Alr"
property_label = "growth"
endpoint_value = 0.411

[[record]]
compound = "Cc1nnc(NS(=O)(=O)c2ccc(N)cc2)s1"
experimental_target = "E. coli TESEC Mtb Alr"
property_label = "growth"
endpoint_value = 0.411

[[record]]
compound = "CCCCC(=O)N(Cc1ccc(-c2ccccc2-c2nnn[nH]2)cc1)[C@H](C(=O)O)C(C)C"
experimental_target = "E. coli TESEC Mtb Alr"
property_label = "growth"
endpoint_value = 0.422

[[record]]
compound = "Cn1ccnc1S"
experimental_target = "E. coli TESEC Mtb Alr"
property_label = "growth"
endpoint_value = 0.405

[[record]]
compound = "C[C@H](CCC(=O)O)[C@H]1CC[C@H]2[C@@H]3C(=O)C[C@@H]4CC(=O)CC[C@]4(C)[C@H]3CC(=O)[C@]12C [Dehydrocholic acid]"
experimental_target = "E. coli TESEC Mtb Alr"
property_label = "growth"
endpoint_value = 0.406

[[record]]
compound = "C#C[C@]1(O)CC[C@H]2[C@@H]3[C@H](C)CC4=C(CCC(=O)C4)[C@H]3CC[C@@]21C"
experimental_target = "E. coli TESEC Mtb Alr"
property_label = "growth"
endpoint_value = 0.362

